System: SKBR3
Assay: relative cell number vs DMSO control (72 h) (% of DMSO); higher = less growth inhibition (more cells)
Conditions: sgRNA knockout: sgNT, 100 nM
Exercise: state measured relative cell number for each of the compounds provided.
One number for each entry.

Below are worked cases with known answers.
Reported relative cell number of N.N.[Cl][Pt][Cl] [Cisplatin] : 84.6

Reported relative cell number of Cc1ccc2c(c1)C(=O)C1(O)CCN(c3ccccc3)C1=N2 (configuration not stated) : 111

Reported relative cell number of `CS(=O)(=O)N1CCN(Cc2cc3nc(-c4cccc5[nH]ncc45)nc(N4CCOCC4)c3s2)CC1` : 67.8

Reported relative cell number of `CN(C)c1cc(NC(=O)CNC(C)(C)C)c(O)c2c1C[C@H]1C[C@H]3[C@H](N(C)C)C(O)=C(C(N)=O)C(=O)[C@@]3(O)C(O)=C1C2=O` : 69.1

Record relative cell number per entry; entries follow.
1. c1cc(Nc2cc(C3CC3)[nH]n2)nc(Nc2ccc3nc[nH]c3c2)n1
2. CCOc1cc2ncc(C#N)c(Nc3ccc(OCc4ccccn4)c(Cl)c3)c2cc1NC(=O)/C=C/CN(C)C
3. C[C@]1(c2nc3c(C(N)=O)cccc3[nH]2)CCCN1
4. Oc1cccc(-c2nc(N3CCOCC3)c3oc4ncccc4c3n2)c1
5. O=C(NOCC(O)CO)c1cc(Br)c(F)c(F)c1Nc1ccc(I)cc1F (configuration not stated)

40.6
70.3
104
134
123

---

System: SKBR3
Assay: relative cell number vs DMSO control (72 h) (% of DMSO); higher = less growth inhibition (more cells)
Settings: sgRNA knockout: sgNT, 10 nM
Exercise: state measured relative cell number for each of the compounds provided.
One number for each entry.

Below are worked cases with known answers.
Reported relative cell number of Cc1nc(Nc2ncc(C(=O)Nc3c(C)cccc3Cl)s2)cc(N2CCN(CCO)CC2)n1 [Dasatinib] : 53.8

Reported relative cell number of COc1cc([C@@H]2c3cc4c(cc3[C@@H](O[C@@H]3O[C@@H]5CO[C@@H](C)O[C@H]5[C@H](O)[C@H]3O)[C@H]3COC(=O)[C@H]23)OCO4)cc(OC)c1O [Etoposide] : 58

Reported relative cell number of Nc1nc(OCc2cc(Br)cs2)c2[nH]cnc2n1 [Lomeguatrib] : 111

Reported relative cell number of C[C@H]1CCC/C=C/[C@@H]2C[C@H](O)C[C@H]2[C@H](O)/C=C/C(=O)O1 [BrefeldinA] : 89.9

Reported relative cell number of COc1cccc2cc(-c3nc([C@H]4CC[C@H](C(=O)O)CC4)n4ncnc(N)c34)[nH]c12 [OSI027] : 87.6

Record relative cell number per entry; entries follow.
1. CC(C)c1cc(-c2n[nH]c(=O)n2-c2ccc3c(ccn3C)c2)c(O)cc1O [Ganetespib]
2. O=C1CCC(N2C(=O)c3ccccc3C2=O)C(=O)N1 (stereo unspecified) [Thalidomide]
3. COc1cc(OC)c(/C=C/S(=O)(=O)Cc2ccc(OC)c(NCC(=O)O)c2)c(OC)c1 [Rigosertib]
4. Nc1ncn([C@H]2C[C@H](O)[C@@H](CO)O2)c(=O)n1 [Decitabine]
5. CCOc1cc2ncc(C#N)c(Nc3ccc(OCc4ccccn4)c(Cl)c3)c2cc1NC(=O)/C=C/CN(C)C [Neratinib]
6. Cc1cc2c(F)c(Oc3ncnn4cc(OC[C@@H](C)O)c(C)c34)ccc2[nH]1 [Brivanib]

1: 75.4; 2: 109; 3: 88.9; 4: 104; 5: 92.7; 6: 112

Record relative cell number per entry; entries follow.
1. COc1cc2nccc(Oc3ccc(NC(=O)C4(C(=O)Nc5ccc(F)cc5)CC4)cc3)c2cc1OC [Cabozantinib]
2. CNC(=O)c1cc(Oc2ccc(NC(=O)Nc3ccc(Cl)c(C(F)(F)F)c3)cc2)ccn1 [Sorafenib]
3. COc1cccc2c1C(=O)c1c(O)c3c(c(O)c1C2=O)C[C@@](O)(C(=O)CO)C[C@@H]3O[C@H]1C[C@H](N)[C@H](O)[C@H](C)O1 [Doxorubicin]

128
102
82.6

Record relative cell number per entry; entries follow.
1. O=c1[nH]cc(F)c(=O)[nH]1 [5-Fluorouracil]
2. CCCS(=O)(=O)Nc1ccc(F)c(C(=O)c2c[nH]c3ncc(Cl)cc23)c1F [PLX4720]

1. 97.9
2. 109
